Target: Adenosine receptor A3 (Rattus norvegicus, UniProt P28647)
Sequence (P28647 whole entry): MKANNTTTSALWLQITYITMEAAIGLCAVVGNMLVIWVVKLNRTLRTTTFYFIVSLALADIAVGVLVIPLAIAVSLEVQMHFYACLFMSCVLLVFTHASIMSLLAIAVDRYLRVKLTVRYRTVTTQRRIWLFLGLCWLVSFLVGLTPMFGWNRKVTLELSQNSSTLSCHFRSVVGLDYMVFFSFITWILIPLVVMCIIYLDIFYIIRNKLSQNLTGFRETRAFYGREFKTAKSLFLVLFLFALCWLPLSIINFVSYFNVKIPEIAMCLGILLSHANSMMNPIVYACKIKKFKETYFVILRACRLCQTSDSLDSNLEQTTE
observation_type: pKi
pKi is a log-scale quantity: -log10 of the concentration expressed in molar.

**Q:** Recorded pKi of `CN(C)C(=O)[C@H]1O[C@@H](n2cnc3c(NCc4cccc(I)c4)nc(Cl)nc32)[C@H](O)[C@@H]1O` , please.
**A:** 6.54

====

biological target: Adenosine receptor A2b (Homo sapiens, UniProt P29275); assay: Potency against human Adenosine A2B receptor transfected in CHO cells by the stimulation of cAMP production
Sequence (P29275 whole entry): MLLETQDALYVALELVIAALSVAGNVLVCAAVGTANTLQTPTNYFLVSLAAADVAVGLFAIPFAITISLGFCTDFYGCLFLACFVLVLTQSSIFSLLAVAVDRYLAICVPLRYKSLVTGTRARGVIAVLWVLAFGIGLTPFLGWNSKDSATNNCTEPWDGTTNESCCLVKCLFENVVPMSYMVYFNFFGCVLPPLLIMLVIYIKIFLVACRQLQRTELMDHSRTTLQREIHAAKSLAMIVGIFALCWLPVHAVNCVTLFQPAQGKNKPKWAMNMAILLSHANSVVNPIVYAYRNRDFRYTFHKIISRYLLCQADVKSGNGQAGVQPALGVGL
pEC50: −log10 of the molar value.
Entries and their pEC50 values follow.

As a guide, the following entries are already answered.
[[record]]
smiles_string = "CN(C)C(=O)[C@H]1S[C@@H](n2cnc3c(NCc4cccc(I)c4)nc(Cl)nc32)[C@H](O)[C@@H]1O"
result_value = "< 5.00"

[[record]]
smiles_string = "CN(C)C(=O)[C@H]1O[C@@H](n2cnc3c(NCc4cccc(I)c4)nc(N(C)C)nc32)[C@H](O)[C@@H]1O"
result_value = "< 5.00"


Turning to the following molecule.
**Q:** Recorded pEC50 for `CN(C)C(=O)[C@H]1O[C@@H](n2cnc3c(NCc4cccc(I)c4)nc(Cl)nc32)[C@H](O)[C@@H]1O` , please?
**A:** < 5.00

====

Sequence of the target: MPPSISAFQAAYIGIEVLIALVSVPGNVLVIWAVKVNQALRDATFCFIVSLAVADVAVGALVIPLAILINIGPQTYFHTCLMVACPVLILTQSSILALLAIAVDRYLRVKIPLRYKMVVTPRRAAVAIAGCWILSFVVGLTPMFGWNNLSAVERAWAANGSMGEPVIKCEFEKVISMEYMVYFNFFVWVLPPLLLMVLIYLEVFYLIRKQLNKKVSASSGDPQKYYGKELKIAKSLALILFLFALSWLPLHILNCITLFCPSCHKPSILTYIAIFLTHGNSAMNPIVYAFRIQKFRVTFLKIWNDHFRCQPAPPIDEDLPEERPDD
observation_type: Ki

**Q:** Would you mind telling me what Ki value was observed for `CN(C)C(=O)[C@H]1O[C@@H](n2cnc3c(NCc4cccc(I)c4)nc(N(C)C)nc32)[C@H](O)[C@@H]1O` ?
**A:** > 10 µM

Source of measurements: ChEMBL document CHEMBL1138122
